Reference source: paper PMC8400955

- EXPERIMENT NOTES: 4-week repeat-dose toxicity/TK study in rats
- Format: in vivo, Sprague Dawley rats
- MEASUREMENT PARAMETERS: female, Sprague Dawley (Crl: CD (SD)), rat, plasma, po, 100 mg/kg/day, day 1, PO 100 mg/kg/day, Female
MEASUREMENT KIND: Cmax

{"columns": ["COMPOUND", "MEASUREMENT KIND", "ENDPOINT VALUE"],
 "data": [
  ["C[C@]12CC[C@@H]3c4ccc(B(O)O)cc4C[C@@H](CCCCCCCCC[S+]([O-])CCCC(F)(F)C(F)(F)F)[C@H]3[C@@H]1CC[C@@H]2O (stereo partly shown)", "Cmax", "3200 ng/mL"]
]}
